Taken from patent US20240034796A1.

- system: T1, human PD-1 protein (human, UniProt Q15116 25-167, limits assumed)
- T1 construct: also called human PD-1 antigen
- T1 sequence (Q15116 25-167 limits assumed): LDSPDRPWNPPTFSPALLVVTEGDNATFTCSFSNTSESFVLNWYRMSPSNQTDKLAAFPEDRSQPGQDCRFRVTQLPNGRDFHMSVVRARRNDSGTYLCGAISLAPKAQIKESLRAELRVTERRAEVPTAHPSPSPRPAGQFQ
- protocol text: SPR; ratio against the U299-WT parent
quantity kind: Ratio (kD)

[[record]]
binder = "AHF16568 (antibody, V domains shown) VH: QVQLVQSGAEVKKPGASVKVSCKASGYTFTGYWMHWVRQAPGQGLEWIGMIHPNSDTTIYNWKFKNRVTMTRDTSISTAYMELSRLRSDDTAVYYCAGTDQEAWMGFWGQGTTVTVSS VL: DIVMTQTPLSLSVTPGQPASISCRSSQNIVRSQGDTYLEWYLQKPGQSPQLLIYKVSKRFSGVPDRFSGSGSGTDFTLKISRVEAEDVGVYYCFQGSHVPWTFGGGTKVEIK"
assay_result = 9.34

[[record]]
binder = "AHF16556 (antibody, V domains shown) VH: QVQLVQSGAEVKKPGASVKVSCKASGYTFTGYWMHWVRQAPGQGLEWIGMIHPNSDTTVYNWKFKNRVTMTRDTSISTAYMELSRLRSDDTAVYYCAGTDQEAWAAFWGQGTTVTVSS VL: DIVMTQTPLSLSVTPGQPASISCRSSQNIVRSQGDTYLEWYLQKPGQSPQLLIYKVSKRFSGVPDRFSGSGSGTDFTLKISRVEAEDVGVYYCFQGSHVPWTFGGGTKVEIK"
assay_result = 5.27

[[record]]
binder = "AHF16557 (antibody, V domains shown) VH: QVQLVQSGAEVKKPGASVKVSCKASGYTFTGYWMHWVRQAPGQGLEWIGMIHPNSDTTVYNWKFKNRVTMTRDTSISTAYMELSRLRSDDTAVYYCAGTDQAAWAGFWGQGTTVTVSS VL: DIVMTQTPLSLSVTPGQPASISCRSSQNIVHSQGDTYLEWYLQKPGQSPQLLIYKVSKRFSGVPDRFSGSGSGTDFTLKISRVEAEDVGVYYCFQGSHVPWTFGGGTKVEIK"
assay_result = 5.29

[[record]]
binder = "AHF16565 (antibody, V domains shown) VH: QVQLVQSGAEVKKPGASVKVSCKASGYTFTGYWMHWVRQAPGQGLEWIGMIHPNSDTTVYNWKFKNRVTMTRDTSISTAYMELSRLRSDDTAVYYCAGTDQEAWHGFWGQGTTVTVSS VL: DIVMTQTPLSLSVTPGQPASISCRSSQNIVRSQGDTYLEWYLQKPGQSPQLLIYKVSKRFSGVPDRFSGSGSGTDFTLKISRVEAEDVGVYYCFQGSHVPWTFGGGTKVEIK"
assay_result = 2.46

[[record]]
binder = "AHF16566 (antibody, V domains shown) VH: QVQLVQSGAEVKKPGASVKVSCKASGYTFTGYWMHWVRQAPGQGLEWIGMIHPNSDTTVYNWKFKNRVTMTRDTSISTAYMELSRLRSDDTAVYYCAGTDQAAWAAFWGQGTTVTVSS VL: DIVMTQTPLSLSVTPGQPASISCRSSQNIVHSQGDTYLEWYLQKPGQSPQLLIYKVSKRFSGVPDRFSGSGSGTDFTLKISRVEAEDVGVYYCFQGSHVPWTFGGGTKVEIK"
assay_result = 6.45

